Experiment: NCI Yeast Anticancer Drug Screen. Data for the cln2 rad14 strain (AID 165);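 note: 0% = growth equal to vehicle treated cultures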
Settings: S. cerevisiae cln2 rad14 strain, at 50.0 µM, stronger effect = higher value
Compounds without any hit were thinned out: in the full panel of roughly 79,000, 15% have a hit.
recorded_endpoint: growth inhibition (%)
Answers are plain numbers, in %.

CCC[CH2][Sn]([CH2]CCC)([CH2]CCC)[CH2]CC(=O)OC = 99.3
O=C1CCP(c2ccccc2)(c2ccccc2)(c2ccccc2)O1 = 25.7
C=CCOC(N)=O = 20.9
COC(=O)C1ON(c2ccccc2)C2c3ccccc3-c3ccccc3C12 (stereo not given) = 50
CC(=O)Oc1cccc2c1C(=O)C(C(=O)C=O)C1C(C=O)OC(C)(C)OC21C (stereo not given) = 14.8
CCC(C)c1cnc(CC(C)C)c(=O)n1O (stereo not given) = 86.3
Cc1ccc(C(=O)C2C(c3ccccc3)N2C2CCCCC2)cc1 (stereo not given) = 0.3
C/C=C(\C)C(=O)OC1CCN2CC=C(COC(=O)C(O)(C(C)O)C(C)(C)O)C12 (stereo not given) = 4.85

Each of the following entries comes with a recorded value; kindly state growth inhibition for each.
1. CCCN1CCC2(CC1)COCc1ccccc12
2. O=C(CC([Se]c1ccccc1)c1ccccc1)c1ccccc1 (stereo not given)
3. N.N.N.N.N.O=C([O-])CCl.[Co+3].[O-][Cl+3]([O-])([O-])[O-]
4. c1ccc(CCN2CCOCC2)nc1

Result block:
12.6
89.4
-0.1
52

Give one value of growth inhibition per listed molecule.
1. c1ccc2c(c1)oc1ccccc12
2. O=C(CBr)OC1CCCCC1
3. CCNC(=S)S
4. OC(c1ccccc1)C1CCCCN1 (stereo not given)
5. CC(=O)O.CC(=O)O.CC(=O)O.CC(=O)O.[Cu].[Cu]
6. COc1cc2c[n+](C)c3c4cc5c(cc4ccc3c2cc1OC)OCO5

Result block:
[-64.5, 10.9, -0.6, -12.3, -53.6, -5.75]

Please report growth inhibition for every entry that follows.
1. Oc1cc(Br)c(O)c(Br)c1
2. O=c1c2cc(Br)ccc2[nH]c(=S)n1-c1ccc(Br)cc1
3. C[N+](C)(C)NP(=O)(N[N+](C)(C)C)Oc1ccccc1
4. CCOP(=O)(OCC)OCC

Result block:
[-11, 18, 20.8, -11.8]
